B1: ANKRD17 (parent)
chain: EMVRFLLEAGADQEHKTDEMHTAL

Variants of: B1
Assay: protein stability index of a GFP-peptide fusion (GPS, HEK-293T) (PSI 1-6); higher = more stable;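 further: lentivirally expressed fusions sorted by FACS into six bins by GFP to DsRed ratio, PSI derived from sequencing read proportions per bin multiplied by bin number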
Conditions: c terminus: a fixed tail appended
QUANTITY KIND: protein stability index
Output spec: single numeric token, no unit.

{"columns": ["VARIANT DESCRIPTOR", "ASSAY VALUE"],
 "data": [
  ["A11D", 3.21]
]}

Task item: Name the recorded protein stability index for `T22S` .
Reply: 2.98

Task item: Field request: protein stability index | item: `T22G`
Reply: 3.23

Task item: Query (variant): `Q13L` ; field requested: protein stability index
Reply: 2.03
